The values you see were collected from patent US8802597B2.

- Tested on: lambsquarters (Chenopodium album)
- method.description: Test B pre/postemergence
- Assay type: in vivo
- assay.setup: Chenopodium album, pre-emergence, Preemergence, 125 g ai/ha; scale 0 to 100 (0 no effect, 100 complete control); read-out: Plant response rating, Lambsquarters
Consider the following compounds; for each one, report its pest or weed control at 125 g/ha.
Please give a number only; it is taken to be in %.

In: Enter measured pest or weed control at 125 g/ha, system lambsquarters (Chenopodium album), for the compound shown: COC(=O)c1nc(C2CC2)nc(NO)c1Br [Compound 35]
Out: 90

In: Supply pest or weed control at 125 g/ha measured with lambsquarters (Chenopodium album) for CNc1nc(C2CC2)nc(C(=O)OC)c1Cl [Compound 79] .
Out: 90

In: Report value only: pest or weed control at 125 g/ha, lambsquarters (Chenopodium album), Nc1nc(C2CC2)nc(C(=O)OCc2ccccc2)c1Cl [Compound 78]
Out: 100

In: Tell me pest or weed control at 125 g/ha of COC(=O)c1nc(C2CC2)nc(N)c1I [Compound 7] when tested on lambsquarters (Chenopodium album).
Out: 80

In: Fill: pest or weed control at 125 g/ha (lambsquarters (Chenopodium album)) for this compound CCOC(=O)c1nc(-c2ccccc2)nc(N)c1Br [Compound 18]
Out: 10

In: Give pest or weed control at 125 g/ha only, for Nc1nc(C2CC2)nc(CO)c1Br [Compound 21] , using lambsquarters (Chenopodium album) data.
Out: 70

In: Name the recorded pest or weed control at 125 g/ha of CCOC(=O)c1nc(C(C)(C)C)nc(N)c1Br [Compound 36] , assay system lambsquarters (Chenopodium album).
Out: 0

====

- Tested on: morningglory (Ipomoea coccinea)
- method.description: Test B pre/postemergence
- Assay type: in vivo
- assay.setup: Ipomoea, pre-emergence, Preemergence, 125 g ai/ha; scale 0 to 100 (0 no effect, 100 complete control); read-out: Plant response rating, Morningglory
Binary call on pest or weed control at 125 g/ha with cut-off 60%: strictly below means 1 (yes), and equality or higher means 0 (no).

In: Please indicate whether the reported pest or weed control at 125 g/ha of COC(=O)c1nc(C2CC2)nc(N)c1I is strictly below 60%.
Out: 0 (no)

In: I'd appreciate it if you could check whether COC(=O)c1nc(C(C)C)nc(N)c1Br has pest or weed control at 125 g/ha smaller than 60%.
Out: 1 (yes)

In: Does the reported pest or weed control at 125 g/ha of the following molecule sit strictly below 60%? CCOC(=O)c1nc(C(C)(C)C)nc(N)c1Br
Out: 1 (yes)

In: Confirm or reject: pest or weed control at 125 g/ha of CCOC(=O)c1nc(-c2ccccc2)nc(N)c1Br lies strictly below 60%
Out: 1 (yes)

In: Is pest or weed control at 125 g/ha of Nc1nc(C2CC2)nc(C=O)c1Br strictly below 60%?
Out: 0 (no)

====

- System: yellow nutsedge (Cyperus esculentus)
- method.description: Test C pre/postemergence
- Type: in vivo
- assay.setup: Cyperus, pre-emergence; Preemergence, 62 g ai/ha; scale 0 to 100, 0 no effect, 100 complete control; read-out: Plant response rating, Nutsedge, Yellow
endpoint.name: pest or weed control at 62 g/ha
Could you write the number and then its unit?

In: Using the record for Nc1nc(-c2ccc(Cl)cc2)nc(C(=O)O)c1Cl [Compound 65] , state its measured pest or weed control at 62 g/ha.
Out: 30%

In: Output pest or weed control at 62 g/ha of CCOC(=O)c1nc(-c2ccc(Cl)cc2)nc(N)c1Cl [Compound 64]
Out: 0%

In: Read off the recorded pest or weed control at 62 g/ha for Nc1nc(C2CC2)nc(C(=O)OCc2ccccc2)c1Br [Compound 22]
Out: 0%

In: Using known records, supply pest or weed control at 62 g/ha for Nc1nc(C2CC2)nc(C=O)c1Br [Compound 26]
Out: 0%

In: Please give the documented pest or weed control at 62 g/ha of Nc1nc(C2CC2)nc(C(=O)OCc2ccccc2)c1Cl [Compound 78]
Out: 0%
